System: IGROV1 ovarian
measurement.protocol: NCI tumour cell line growth inhibition, 48 h; in the data active = GI50 below about 0.43 µM; inactive = the rest
In this exercise, the only acceptable responses are active, inactive

Asked: Identify the outcome logged in this assay for the molecule shown: CCCCCCCCCCCCCCCCCCNC(=O)[C@H]1CSC(c2ccc(OC)c(F)c2)N1 (stereo not given in full)
Given back: inactive

Asked: Also need CC1(C)N=C(N)N=C(N)N1c1cccc(/C=C/C=C/c2cccc([N+](=O)[O-])c2)c1 , thanks.
Given back: inactive

Asked: Now the molecule O=[N+]([O-])c1ccc(N/N=C\c2cc(Cl)ccc2O)nc1
Given back: inactive

Asked: Let us now turn to CCOC(=O)c1cnc(SCc2ccc(Cl)c(Cl)c2)nc1N1CC1
Given back: inactive

Asked: Next record, please: O=C1c2cc3c(cc2-c2c1c1cc(Cl)c(Cl)cc1c(=O)n2CCCn1ccnc1)OCO3
Given back: active

---

System: ACHN renal
measurement.protocol: NCI tumour cell line growth inhibition, 48 h
measured.attribute: TGI

Asked: Quick one: TGI of COc1ncnc2c1cnn2Cc1cn(COCC(O)CO)nn1 (stereo not given) ?
Given back: > 100 µM

Asked: Again, but for COc1ccc(/C=C2\CN(C(=O)CCN3CCC(=NO)CC3)C/C(=C\c3ccc(OC)cc3)C2=O)cc1
Given back: 4.05 µM

Asked: And then COc1cc2c(cc1OC)C1Cc3ccccc3CCN1CC2 (stereo not given) , what is it?
Given back: > 100 µM

Asked: Please answer likewise for COc1cc2cc(Oc3ccc(NC(=O)Nc4cccc(C(F)(F)F)c4)cc3)c(C)nc2cc1OCCN1CCCCC1
Given back: 3.06 µM

Asked: And the next one, Cn1nc(-c2ccccc2NC(=O)C(F)(F)F)c(=O)n(C)c1=S ?
Given back: 77.5 µM

Asked: Please answer likewise for CCCCN(CCCC)C(=O)C(=O)CC(=O)c1ccc(Br)cc1
Given back: > 100 µM

Asked: And then CCOc1ccc(N2C(=O)C3c4[nH]c5ccccc5c4C4CCC(C(C)(C)C)CC4C3C2=O)cc1 (stereo not given) , what is it?
Given back: > 100 µM

Asked: Same question for CCOC(=O)c1cccc(=O)c(C(=O)OCC)c1 please.
Given back: > 100 µM

Asked: Note, next up: CCOP(=O)(OCC)C1C(=O)O[C@H]2CCCC[C@@H]12 (stereo not given in full)
Given back: > 100 µM

Asked: Next: CCCCOC(=O)C(=O)C(CC(C(=O)Cc1ccccc1)c1ccccc1)C(=O)C=C(C)C (stereo not given)
Given back: > 100 µM

Asked: Please give the result for CC1=COC(=O)c2ccccc2N1 too.
Given back: > 100 µM

Asked: Do the same for Cc1ccc(S(=O)(=O)N/N=C/C(Br)=C(/Br)C(=O)O)cc1 please
Given back: 8.75 µM

Asked: Lookup O=C1/C(=C\c2ccc(Cl)cc2)CN(C(=S)Nc2ccccc2)C/C1=C\c1ccc(Cl)cc1
Given back: 2.65 µM

Asked: And Cc1cc2c(C)c3cc(C)c(N)cc3nc2cc1N ?
Given back: 3.82 µM

Asked: One more compound: NC(N)=NC(CC(=O)O)c1ccccc1 (stereo not given)
Given back: > 100 µM

Asked: And then O/N=c1/ccn(O)c2ccccc12 , what is it?
Given back: 2.67 µM

Asked: Same thing, different compound: Cc1c2c(c(C)n1-c1ccccc1)C(=O)N(CCSC(=N)N)C2=O
Given back: > 100 µM

Asked: Input COc1cc(-c2cc(C(=O)N3CCN(C(=O)c4ccccc4NCc4ccco4)CC3)nc3cc(-c4ccccc4)nn23)cc(OC)c1OC
Given back: > 100 µM

Asked: And for CC(=O)[CH-]C(=O)c1ccccc1.CC(=O)[CH-]C(=O)c1ccccc1.CCN(CC)CC[O-].CCN(CC)CC[O-].Cl.[Ti+4] ?
Given back: > 100 µM

Asked: Quick one: CN1CCN(c2nc3ccccc3nc2C(=O)c2ccc(Cl)cc2)CC1
Given back: > 100 µM

Asked: # repeat for O=C1C(C(O)(C(F)(F)Cl)C(F)(F)Cl)CCC1C(O)(C(F)(F)Cl)C(F)(F)Cl (stereo not given)
Given back: > 10 µM

Asked: Now try N#C/C(=C1\N=C(c2ccccc2O)Oc2ccccc21)c1ccc([N+](=O)[O-])cc1 .
Given back: > 100 µM

Asked: // same read-out, input: CSc1c(C(=O)Nc2ccc(C)cc2)c(N)nn1-c1ccccc1
Given back: > 100 µM

Asked: Now consider Cc1cn(CC2=NCCN2)c(=O)[nH]c1=O and answer again.
Given back: > 100 µM

Asked: For C=CC1C2=C(C(=O)NCC2)C2OC(O)C3=C(CCNC3=O)C2C1C (stereo not given) then?
Given back: > 100 µM
